abundance fitness listing for selected variants.
B1: GA-binding protein alpha chain, residues 172 to 250; numbered along this chain, Q06546 (parent)
chain: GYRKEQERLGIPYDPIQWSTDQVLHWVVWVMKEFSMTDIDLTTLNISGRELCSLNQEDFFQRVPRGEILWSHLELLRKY

Variants of: B1
Test: abundance fitness (aPCA) (normalised: wild type 0, dead -1); higher = more abundant; growth selection in yeast, the domain comes from the species named
Settings: Homo sapiens
Give only the figure.

Answered examples (5):
>>> df
   mutant_label   measurement_name  measured_number
0          G66Q  abundance fitness           -0.773
1          R49Q  abundance fitness           -0.021
2          G48T  abundance fitness           -0.813
3          T37Q  abundance fitness           -0.009
4          Q22S  abundance fitness           -0.646

Shift focus to the following entry.
Recorded abundance fitness of F59W , please.
-0.263

Data credit: the Human Domainome abundance scans (Beltran et al. 2025)
